Can you tell me IC50 for the items I'm about to list?
# System: P. falciparum F32-TEM (artemisinin-sensitive strain)
# EXPERIMENT NOTES: Standard chemosensitivity assay (SYBR Green I), F32-TEM
# Type: cell-based, Plasmodium falciparum
# CONDITION DESCRIPTION: Plasmodium falciparum, F32, 48 h, read-out: P. falciparum Strains Mean IC50, F32-TEM, 48 h; ^1 n = 1, ^2 n = 2
Kindly write the number and append the unit.

Consider the following illustrative entries.
CCOP(=O)(OCC)C(N(OC(C)c1cc(-c2ccccn2)nc(-c2ccccn2)c1)C(C)(C)CO)C(C)(C)C (centres unmarked) [(RS/SR)-2F] = 0.6 µM
CCOP(=O)(OCC)[C@@H](N(O[C@H](C)c1ccncc1)C(C)(C)C)C(C)(C)C (relative stereo) [(RR/SS)-1a] = 15 µM
C[C@@H]1CC[C@H]2[C@@H](C)C(=O)O[C@@H]3O[C@@]4(C)CC[C@@H]1[C@]32OO4 [Artemisinin, reference compound] = 0.02 µM
CCOP(=O)(OCC)C(N(OC(C)c1cc(-c2ccccn2)nc(-c2ccccn2)c1)C(C)(C)C(=O)O)C(C)(C)C (centres unmarked) [(RS/SR)-4F] = 2.9 µM

[Q] For the compound CC(ON1C(C)(C)CC(O)CC1(C)C)c1cc(-c2ccccn2)nc(-c2ccccn2)c1 (racemic) [(R/S)-8F] , give its reported IC50.
[A] 1.3 µM
